I'd be grateful if you could share measured GI50 for these entries.
system: IGROV-1; assay: NCI tumour cell line growth inhibition, 48 h
Activity calls are given as the source filed them. Cut-off read from the data, not from the text of the source: active = GI50 up to about 1.1 µM and inactive = higher.

Worked examples, 3 molecules total:
# molecule, value_observed
records = [
    ("CC1=Nc2c(O)nc(S)nc2NC(c2ccc(Cl)c(Cl)c2)C1 (stereo unspecified)", "20.1 µM (inactive)"),
    ("O=C1C2=C(C3=NCCc4c[nH]c1c43)c1c(cc(Br)c(O)c1Br)CCN2", "13.6 µM (inactive)"),
    ("Cn1c(=O)c2c(nc(NCCCCl)n2CC(=O)NCCCCl)n(C)c1=O", "> 100 µM (inactive)"),
]

Below is a list of molecules. For each, state its recorded GI50.
1. Cc1nc2c(ccc3[nH]c4ccccc4c32)s1
2. NC(=O)C(=Cc1ccc(C(O)P(=O)(O)O)cc1)C(N)=O (stereo unspecified)
3. Cc1ccc2c(O)cc(-c3ccc4ccccc4c3)nc2n1
4. Nc1nc(Cl)cc(NCCC2(CO)CCC2)n1
5. NC(=O)NC(=O)Nc1ccc(Br)cc1
6. CC(=O)/C(=C/NC(=S)Nc1ccccc1)C(=O)Nc1ccccc1C
7. C/N=c1/ss/c(=N\C(SC)=[N+](C)C)n1C.[O-][Cl+3]([O-])([O-])[O-]
8. C1CSC(=[N+]2CC[N+](=C3SCCS3)CC2)S1

Return:
1: 21.9 µM (inactive); 2: > 100 µM (inactive); 3: 2.6 µM (inactive); 4: > 100 µM (inactive); 5: 16.7 µM (inactive); 6: > 100 µM (inactive); 7: > 100 µM (inactive); 8: > 100 µM (inactive)

----------
test system: SF-539; assay: NCI tumour cell line growth inhibition, 48 h
Active and inactive are the calls of the source. Rule as the data show it: active = GI50 up to about 1.1 µM and inactive = higher.
measured_endpoint: GI50

Worked examples, 3 molecules total:
# molecule, value_observed
rows = [
    ("Oc1c(-c2ccccc2)nc2ccccn12", "> 100 µM (inactive)"),
    ("CCOC(=O)C1=C(O)C(=O)c2ccccc2C1=O", "> 100 µM (inactive)"),
    ("OCC(O)C(O)c1nn(-c2ccccc2)c2nc3cc(Cl)c(Cl)cc3nc12 (stereo not drawn)", "24 µM (inactive)"),
]

Below is a list of molecules. For each, state its recorded GI50.
1. C[C@H]1O[C@@H](O[C@H]2[C@@H](O)C[C@H](O[C@H]3[C@@H](O)C[C@H](O[C@H]4CC[C@@]5(C)[C@H](CC[C@@H]6[C@@H]5CC[C@]5(C)[C@@H](C7=CC(=O)OC7)CC[C@]65O)C4)O[C@@H]3C)O[C@@H]2C)C[C@H](O)[C@@H]1O
2. O=C(Nc1ccc([As](=O)(O)O)cc1)Nc1cccc(Cl)c1Cl

Return:
< 0.0123 µM (active)
> 100 µM (inactive)

Below is a list of molecules. For each, state its recorded GI50.
1. CCN(CC)COC(=S)S
2. COC(=O)[C@@H]1C[C@@H]2c3ccccc3N(S(=O)(=O)c3ccccc3)[C@@H]2N1C(=O)OC
3. O=[N+]([O-])c1ccc2c(/N=N/c3ccc4ccccc4c3O)c(O)cc(S(=O)(=O)O)c2c1

Return:
["90.6 µM (inactive)", "> 100 µM (inactive)", "11.4 µM (inactive)"]

----------
test system: SNB-75; assay: NCI tumour cell line growth inhibition, 48 h
The source made the active and inactive calls. No stated cut-off is given here; in the data, active = GI50 up to about 1.1 µM and inactive = higher.
Form entry, call: pick from Yes = active, No = inactive

# molecule, group_label
measured = [
    ("O=C(/C=C/c1ccccc1)CCC1C(=O)NC(=O)NC1=O", "No"),
    ("Cc1ccc(C)c(N2C(=O)C(=O)C(c3nc4ccccc4s3)/C(=N/N)C2=O)c1 (stereo not given)", "No"),
]

Attention now shifts to the item below.
Enquiry: // return assay outcome for COC(=O)C(/C(=N/N)C(=O)Nc1ccc(C)c(C)c1)c1nc2ccc(Cl)cc2nc1O (stereo not given)
Return: No

----------
test system: HCC 2998; assay: NCI tumour cell line growth inhibition, 48 h
Active and inactive are the calls of the source. No stated cut-off is given here; in the data, active = GI50 up to about 1.1 µM and inactive = higher.
I'd be grateful if you could share measured GI50 for these entries.

Worked examples, 5 molecules total:
# molecule, GI50
data = [
    ("CC1=CC(=O)/C(=C/NC(=S)NCc2ccccc2)C(=O)O1", "> 100 µM (inactive)"),
    ("CC(=O)OCC1OC(n2ncc(=O)[nH]c2=O)C(OC(C)=O)C1OC(C)=O (stereo unspecified)", "26.1 µM (inactive)"),
    ("COc1c2c(cc3c1C1(O)Cc4ccc5c(c4C[N+]1(C)CC3)OCO5)OCO2 (stereo unspecified)", "33 µM (inactive)"),
    ("Oc1ccc2c(c1)OCC(O)(c1ccccc1O)C2 (stereo unspecified)", "> 100 µM (inactive)"),
    ("C/C(=N\\NC(N)=S)c1ccc(/C(C)=N/NC(N)=S)cc1", "> 100 µM (inactive)"),
]

Below is a list of molecules. For each, state its recorded GI50.
1. CCOP(=O)(OCC)/C(C#N)=C/c1coc2cc(C)cc(C)c2c1=O
2. CC1CCCC(C(O)CC2CC(=O)NC(=O)C2)C1O (stereo unspecified)
3. Cc1ccc(N2C(=O)C=C(C3=C(O)C(=O)N(c4ccc(C)cc4)C3=O)C2=O)cc1
4. Cn1c(=O)n2n(c1=O)C([S+]([O-])c1ccccc1)C2 (stereo unspecified)
5. COC(=O)c1c(C)cccc1C1CN=NC12Cc1cccc(C)c1C2=O (stereo unspecified)
6. O=c1ccn([C@@H]2C=C(CO)[C@@H](O)[C@H]2O)c(=O)[nH]1
7. COc1ccc(C2COc3cc(OC(C)=O)c(OC(C)=O)cc3C2)cc1 (stereo unspecified)
8. CCOC(=O)N(c1ccccc1)N(CC)C(=O)/C(C)=N/Nc1ccc([N+](=O)[O-])cc1

Return:
1: > 100 µM (inactive); 2: > 100 µM (inactive); 3: > 100 µM (inactive); 4: > 100 µM (inactive); 5: 38 µM (inactive); 6: > 625 µM (inactive); 7: 23.2 µM (inactive); 8: 18 µM (inactive)

Below is a list of molecules. For each, state its recorded GI50.
1. CCOC(=O)C1=C(C)N(NC(=O)Nc2ccccc2)C(=O)C1=P(c1ccccc1)(c1ccccc1)c1ccccc1
2. CC1CCCCN1CC(=O)c1ccc2c(c1)Sc1ccccc1O2 (stereo unspecified)
3. COc1ccccc1NC(=O)C1=C(C)NC(C)=C(C(=O)Nc2ccccc2OC)C1c1cccc2c1OCO2
4. C[C@H]1[C@H](C)N(Cc2ccccc2)P(=O)(C(O)/C=C/c2ccccc2)N1Cc1ccccc1 (stereo partly specified)
5. COc1nc2c(nc(N)n2C2OC(CO)C(O)C(O)C2O)c(=O)n1C (stereo unspecified)
6. CC(C)CC1NC(=O)C(C(C)C)NC(=O)CC(C)COC(=O)C(CC(C)C)N(C)C(=O)C(C(C)C)NC(=O)C(C(C)C)OC1=O (stereo unspecified)
7. O=C(C/N=C(\CN(c1ccccc1)c1ccccc1)Oc1c([N+](=O)[O-])cc([N+](=O)[O-])cc1[N+](=O)[O-])N1CCNCC1
8. O=Cc1[nH]c2ccccc2c1Br

Return:
1. 47.2 µM (inactive)
2. 17.7 µM (inactive)
3. 85.7 µM (inactive)
4. 6.3 µM (inactive)
5. > 100 µM (inactive)
6. > 50 µM (inactive)
7. > 100 µM (inactive)
8. 60.5 µM (inactive)

----------
test system: U-251; experiment: NCI tumour cell line growth inhibition, 48 h
The source made the active and inactive calls. No stated cut-off is given here; in the data, active = GI50 up to about 1.1 µM and inactive = higher.
Form entry, call: pick from 1.0 for active, 0.0 for inactive

Enquiry: // return assay outcome for Nc1ccc2c(=O)cc(-c3ccc(Br)s3)[nH]c2n1
Return: 0.0

Enquiry: // return assay outcome for COC(=O)CCC1(C)C2CCC1/C(=N/O)C2 (configuration not stated)
Return: 0.0

----------
I'd be grateful if you could share measured GI50 for these entries.
test system: DU-145; experiment: NCI tumour cell line growth inhibition, 48 h
The source made the active and inactive calls. Cut-off read from the data, not from the text of the source: active = GI50 up to about 1.1 µM and inactive = higher.

# molecule, GI50
records = [
    ("CO[P@@]1(=O)O[C@@H](c2ccccc2)[C@H](O)[C@@]1(O)c1ccccc1", "> 100 µM (inactive)"),
    ("COc1c2c(cc3c1C1(O)Cc4ccc5c(c4C[N+]1(C)CC3)OCO5)OCO2 (stereo unspecified)", "> 100 µM (inactive)"),
    ("C=C[C@@]1(O)CCCC[C@@H]1CC(Sc1ccccc1)Sc1ccccc1", "17.7 µM (inactive)"),
    ("CCc1cccc2c3c([nH]c12)-c1ccccc1NC(=O)C3", "> 100 µM (inactive)"),
]

Below is a list of molecules. For each, state its recorded GI50.
1. B.CC(=O)OC1CN2CCC1CC2 (stereo unspecified)
2. O=C(Nc1nccs1)NS(=O)(=O)n1cnc2ccccc21
3. COC(=O)C1=C(C(=O)OC)C(OO)(c2ccccc2)OC1=O (stereo unspecified)

Return:
1: > 100 µM (inactive); 2: > 100 µM (inactive); 3: > 100 µM (inactive)

Below is a list of molecules. For each, state its recorded GI50.
1. COc1ccc(C2(O)C(S(=O)(=O)c3ccc(C)cc3)=Cc3ccc(OC)cc32)cc1 (stereo unspecified)
2. Nc1ccc2c(=O)cc(-c3ccc(Br)s3)[nH]c2n1
3. CCOC(=O)NC(=S)NN(C)C1=NCC(C)(C)S1
4. CC1CCCN(CC(O)CN2CCCc3ccccc32)C1 (stereo unspecified)

Return:
71.3 µM (inactive)
3.93 µM (inactive)
> 100 µM (inactive)
> 100 µM (inactive)

Source: ChEMBL document CHEMBL1201862
